Origin of measurements: patent US10981899B2

# system-tested: sAC (Homo sapiens (Human), UniProt Q96PN6)
# Sequence (Q96PN6 1-469): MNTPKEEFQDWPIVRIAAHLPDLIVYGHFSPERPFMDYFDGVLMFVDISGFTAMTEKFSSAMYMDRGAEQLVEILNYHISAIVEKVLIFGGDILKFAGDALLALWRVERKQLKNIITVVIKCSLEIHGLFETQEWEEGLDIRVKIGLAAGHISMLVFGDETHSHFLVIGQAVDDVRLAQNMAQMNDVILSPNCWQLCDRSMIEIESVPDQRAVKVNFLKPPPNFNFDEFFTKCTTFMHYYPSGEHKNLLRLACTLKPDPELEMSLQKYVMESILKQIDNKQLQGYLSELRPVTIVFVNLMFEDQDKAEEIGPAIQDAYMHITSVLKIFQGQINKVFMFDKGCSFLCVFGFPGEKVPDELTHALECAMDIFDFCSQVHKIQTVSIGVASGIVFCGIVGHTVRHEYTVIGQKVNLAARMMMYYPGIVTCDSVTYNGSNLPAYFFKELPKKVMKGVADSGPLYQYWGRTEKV
# experiment-description: ELISA-based Correlate-EIA Direct cAMP Assay of in vitro sAC activity
pIC50: −log10 of the molar value.
measure: pIC50

Input: Consider the molecule Cc1cccc(-n2nc(S)sc2=S)c1 [RU-0207328] . State its measured pIC50.
Output: < 4.70

====

# system-tested: human sACt protein (Homo sapiens (Human))
# Sequence (Q96PN6 1-469): as above
measure: IC50

Input: State measured IC50 of the compound `Cc1cccc(-n2nc(S)sc2=S)c1` with human sACt protein (Homo sapiens (Human)).
Output: > 20 µM
